# MEASURED_TARGET: T1, human NKG2D-Fc fusion protein (human, UniProt P26718 73-216)
# T1 construct: extracellular domain; also called recombinant human NKG2D-Fc; human recombinant NKG2D; not shown: human IgG1 Fc domain
# T1 sequence (looked up): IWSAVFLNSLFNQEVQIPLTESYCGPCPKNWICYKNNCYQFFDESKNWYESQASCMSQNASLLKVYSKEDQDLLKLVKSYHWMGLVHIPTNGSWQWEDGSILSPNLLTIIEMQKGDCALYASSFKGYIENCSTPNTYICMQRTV
# METHOD_SUMMARY: ELISA on coated NKG2D-Fc
MEASURE: binding result

BINDER	binding result
ADI-29404 (antibody, V domains shown, also called F04) VH: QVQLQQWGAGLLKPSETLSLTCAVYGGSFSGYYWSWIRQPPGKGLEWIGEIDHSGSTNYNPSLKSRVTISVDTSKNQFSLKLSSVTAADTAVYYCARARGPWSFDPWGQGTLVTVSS VL: DIQMTQSPSTLSASVGDRVTITCRASQSISSWLAWYQQKPGKAPKLLIYKASSLESGVPSRFSGSGSGTEFTLTISSLQPDDFATYYCEQYDSYPTFGGGTKVEIK	binds
ADI-27740 (antibody, V domains shown, also called A40) VH: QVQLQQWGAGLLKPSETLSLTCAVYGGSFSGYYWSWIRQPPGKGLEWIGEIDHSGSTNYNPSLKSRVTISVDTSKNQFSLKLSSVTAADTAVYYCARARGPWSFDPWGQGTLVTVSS VL: DIQMTQSPSTLSASVGDRVTITCRASQSIGSWLAWYQQKPGKAPKLLIYKASSLESGVPSRFSGSGSGTEFTLTISSLQPDDFATYYCQQYHSFYTFGGGTKVEIK	binds
ADI-27741 (antibody, V domains shown) VH: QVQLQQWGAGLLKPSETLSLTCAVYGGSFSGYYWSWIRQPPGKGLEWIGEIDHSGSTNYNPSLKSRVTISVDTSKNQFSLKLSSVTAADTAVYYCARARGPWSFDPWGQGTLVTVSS VL: DIQMTQSPSTLSASVGDRVTITCRASQSIGSWLAWYQQKPGKAPKLLIYKASSLESGVPSRFSGSGSGTEFTLTISSLQPDDFATYYCQQSNSYYTFGGGTKVEIK	binds
ADI-27749 (antibody, V domains shown, also called A49) VH: EVQLVESGGGLVKPGGSLRLSCAASGFTFSSYSMNWVRQAPGKGLEWVSSISSSSSYIYYADSVKGRFTISRDNAKNSLYLQMNSLRAEDTAVYYCARGAPMGAAAGWFDPWGQGTLVTVSS VL: DIQMTQSPSSVSASVGDRVTITCRASQGISSWLAWYQQKPGKAPKLLIYAASSLQSGVPSRFSGSGSGTDFTLTISSLQPEDFATYYCQQGVSFPRTFGGGTKVEIK	binds
ADI-29443 (antibody, V domains shown, also called F43) VH: QLQLQESGPGLVKPSETLSLTCTVSGGSISSSSYYWGWIRQPPGKGLEWIGSIYYSGSTYYNPSLKSRVTISVDTSKNQFSLKLSSVTAADTAVYYCARGSDRFHPYFDYWGQGTLVTVSS VL: EIVLTQSPATLSLSPGERATLSCRASQSVSRYLAWYQQKPGQAPRLLIYDASNRATGIPARFSGSGSGTDFTLTISSLEPEDFAVYYCQQFDTWPPTFGGGTKVEIK	binds

Ask | Value lookup for binding result; key = ADI-29407 (antibody, V domains shown) VH: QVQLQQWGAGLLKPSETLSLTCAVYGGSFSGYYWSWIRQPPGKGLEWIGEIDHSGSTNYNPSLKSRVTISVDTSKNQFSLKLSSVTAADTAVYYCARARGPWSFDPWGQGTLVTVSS VL: DIQMTQSPSTLSASVGDRVTITCRASQSISSWLAWYQQKPGKAPKLLIYKASSLESGVPSRFSGSGSGTEFTLTISSLQPDDFATYYCQQYQSFPTFGGGTKVEIK
Reply | binds

Ask | # repeat for ADI-29379 (antibody, V domains shown, also called E79) VH: QVQLVQSGAEVKKPGASVKVSCKASGYTFTSYYMHWVRQAPGQGLEWMGIINPSGGSTSYAQKFQGRVTMTRDTSTSTVYMELSSLRSEDTAVYYCARGAPNYGDTTHDYYYMDVWGKGTTVTVSS VL: EIVMTQSPATLSVSPGERATLSCRASQSVSSNLAWYQQKPGQAPRLLIYGASTRATGIPARFSGSGSGTEFTLTISSLQSEDFAVYYCQQYDDWPFTFGGGTKVEIK
Reply | binds

Ask | # repeat for ADI-29429 (antibody, V domains shown) VH: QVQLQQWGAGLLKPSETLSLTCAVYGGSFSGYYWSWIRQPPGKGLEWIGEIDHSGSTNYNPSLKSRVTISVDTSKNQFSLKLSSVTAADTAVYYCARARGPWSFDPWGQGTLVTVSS VL: DIQMTQSPSTLSASVGDRVTITCRASQSIGSWLAWYQQKPGKAPKLLIYKASSLESGVPSRFSGSGSGTEFTLTISSLQPDDFATYYCQQYELYSYTFGGGTKVEIK
Reply | binds

Ask | # repeat for ADI-29405 (antibody, V domains shown) VH: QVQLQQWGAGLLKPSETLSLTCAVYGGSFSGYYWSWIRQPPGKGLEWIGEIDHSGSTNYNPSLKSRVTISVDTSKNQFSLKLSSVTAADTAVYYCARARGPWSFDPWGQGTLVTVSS VL: DIQMTQSPSTLSASVGDRVTITCRASQSISSWLAWYQQKPGKAPKLLIYKASSLESGVPSRFSGSGSGTEFTLTISSLQPDDFATYYCQQYGSFPTFGGGTKVEIK
Reply | binds

Just for reference, patent US20210261668A1 is where these values come from.
